# System: SR leukemia
# procedure.details: NCI tumour cell line growth inhibition, 48 h
Recorded measurements of TGI, one per entry
Give the quantity in µM, number only.

[[record]]
compound = "CCOP(=O)(CCCC(O)CNc1nc(N)nc(Cl)c1N=Nc1ccc(Cl)cc1)OCC (stereo not given)"
target_system = "SR leukemia"
value_reported = 6.82


With those in mind, consider the next compound.
Prompt: Input Cc1ccc(-c2nc3nc(-c4ccc(F)cc4)nc(N4CCNCC4)c3o2)cc1 , output reported TGI.
Response: 1.13

---

# Test system: SNB-19 CNS
# procedure.details: NCI tumour cell line growth inhibition, 48 h
assay.endpoint: TGI

Use these answered entries as a reference point.
[[record]]
compound = "O=C(O)CN(c1ccccc1)S(=O)(=O)c1cccc([N+](=O)[O-])c1"
target_system = "SNB-19 CNS"
assay_endpoint = "TGI"
value_reported = "> 100 µM"

[[record]]
compound = "N#CC1C[C@@H]2CC3(CCC2CN1C(=O)c1ccccc1)OCCO3 (stereo not given in full)"
target_system = "SNB-19 CNS"
assay_endpoint = "TGI"
value_reported = "> 100 µM"

[[record]]
compound = "CCc1cc(C)cc2[n+]1CC=C2"
target_system = "SNB-19 CNS"
assay_endpoint = "TGI"
value_reported = "> 100 µM"

[[record]]
compound = "CC(C)=CC1C(C(=O)Oc2ccccc2C(C)C)C1(C)C (stereo not given)"
target_system = "SNB-19 CNS"
assay_endpoint = "TGI"
value_reported = "> 100 µM"


With those in mind, consider the next compound.
Prompt: Input CN1CCN(C(=O)[C@@]2(C)CC[C@]3(C)CC[C@]4(C)C(=CC[C@@H]5[C@@]6(C)CCC(=O)NC(C)(C)[C@@H]6CC[C@]54C)[C@@H]3C2)CC1 , output reported TGI.
Response: 3.56 µM

---

Recorded measurements of TGI, one per entry
# Test system: OVCAR-3 ovarian
# procedure.details: NCI tumour cell line growth inhibition, 48 h
Give the quantity in µM, number only.

Use these answered entries as a reference point.
[[record]]
compound = "Clc1ccc(CCNC2(c3cc4ccccc4s3)CCCCC2)cc1Cl"
target_system = "OVCAR-3 ovarian"
value_reported = 49.2

[[record]]
compound = "Cn1c2ccc(F)cc2c2ccc3c(c21)C(=O)C=CC3=O"
target_system = "OVCAR-3 ovarian"
value_reported = 19.6

[[record]]
compound = "O=C(COc1ccccc1Cl)N1N=C(c2ccccc2)CC1(O)c1ccccc1 (stereo not given)"
target_system = "OVCAR-3 ovarian"
value_reported = 33.6

[[record]]
compound = "Oc1c(C(Nc2ccccn2)c2cccc(Oc3ccccc3)c2)ccc2cccnc12 (stereo not given)"
target_system = "OVCAR-3 ovarian"
value_reported = 13.4

[[record]]
compound = "CC#C[C@]1(O)CCC2[C@@H]3CCC4=CC(=O)CCC4=C3[C@@H](c3ccc(N(C)C)cc3)C[C@@]21C (stereo not given in full)"
target_system = "OVCAR-3 ovarian"
value_reported = 23.5


With those in mind, consider the next compound.
Prompt: Input O=C1/C(=C/c2ccc([N+](=O)[O-])s2)Oc2cc(Cl)ccc21 , output reported TGI.
Response: 0.898

---

# System: 786-0 renal
# procedure.details: NCI tumour cell line growth inhibition, 48 h
Recorded measurements of TGI, one per entry

Prompt: Input CNC(=O)c1nn(C)c2c1C(C)(C)Cc1cnc(Nc3cccc(N4CCN(C)CC4)c3)nc1-2 , output reported TGI.
Response: 14.1 µM

Prompt: Input CN1C(=O)CC2(C)c3cc(O)cc(Br)c3N(C)C12 (stereo unspecified) , output reported TGI.
Response: > 100 µM

Prompt: Input c1coc(-c2nccc3c2[nH]c2ccccc23)c1 , output reported TGI.
Response: > 100 µM

Prompt: Input O=C1c2ccccc2C(=O)N1n1c(Cc2ccc(Cl)cc2)n[nH]c1=O , output reported TGI.
Response: > 100 µM

---

Recorded measurements of TGI, one per entry
# Tested on: RPMI-8226 leukemia
# procedure.details: NCI tumour cell line growth inhibition, 48 h
Give the quantity in µM, number only.

[[record]]
compound = "COc1cc(OC)cc(Oc2cnc3cc(N)cc(N)c3n2)c1"
assay_endpoint = "TGI"
value_reported = 53.7


Prompt: Output reported TGI of the compound COc1ccc2c(c1)N(Cc1ccc(Cl)cc1)CCC2N1CCCC1=O (stereo not given) on RPMI-8226 leukemia.
Response: 12.8

---

# Test system: HOP-92 NSCLC
# procedure.details: NCI tumour cell line growth inhibition, 48 h
assay.endpoint: TGI (µM)
Give the quantity in µM, number only.

[[record]]
input_smiles = "CC1=C/C=C/C(=O)O[C@@H]([C@H](C)[C@H](O)[C@@H](C)NC(=O)C(C)C)[C@H](C)/C=C/C(C)=C/[C@H]2C=CCC[C@@]2(C)\\C=C\\1"
value_reported = 6.5


Prompt: Input CN1CCN(Cc2ccc(NC(=O)c3cncc(C#Cc4c(N)ncc5ccc(C#N)cc45)c3)cc2C(F)(F)F)CC1 , output reported TGI.
Response: 6.35

---

# Tested on: U251 CNS
# procedure.details: NCI tumour cell line growth inhibition, 48 h
assay.endpoint: TGI (µM)
Give the quantity in µM, number only.

[[record]]
molecule = "COC1=CC(c2ccc[nH]2)=N/C1=C\\c1[nH]c(C)c(C(=O)CCC(=O)Oc2ccc3c(c2)CCC2C3CC[C@]3(C)[C@@H](O)CC[C@@H]23)c1C (some centres not stated)"
value_reported = 28.4

[[record]]
molecule = "CN(C)C1CCN(Cc2ccc(NC(=O)c3cncc(C#Cc4cnc(N)c5ncccc45)c3)cc2C(F)(F)F)CC1"
value_reported = 2.22

[[record]]
molecule = "CC(=O)O[C@H]1C(=O)[C@@]2(C)[C@H]([C@H](OC(=O)c3ccccc3)[C@]3(O)C[C@H](OC(=O)[C@H](O)[C@@H](NC(=O)c4ccccc4)c4ccc5ccccc5c4)C(C)=C1C3(C)C)[C@]1(OC(C)=O)CO[C@@H]1C[C@@H]2O"
value_reported = 1.46


Prompt: Input CC(=O)c1ccccc1NC(=O)C(=O)C(C(=O)c1ccc2ccccc2c1)C1OC(=O)c2ccccc21 (configuration not stated) , output reported TGI.
Response: 40.7

Prompt: Input O=C1/C(=C/c2ccc([N+](=O)[O-])s2)Oc2cc(Cl)ccc21 , output reported TGI.
Response: 2.21

Prompt: Input CN1CCN(C(=O)CCC(=O)Nc2cc3c(c4ccccc24)-c2ccc4ccccc4c2C3)CC1 , output reported TGI.
Response: 4.11

Prompt: Input CCCCCCC1N=C(N)N=C(N)N1c1cccc(Cl)c1 (configuration not stated) , output reported TGI.
Response: 13.7

Prompt: Input C=C(C)[C@@H](O)[C@H](O)C[C@H](C)C1CC[C@]2(C)C1=CC[C@@H]1[C@@]3(C)CC[C@@H](OC(C)=O)C(C)(C)[C@@H]3C[C@@H](OC3OC(COC(C)=O)C(O)C(O)C3O)[C@]12C (some centres not stated) , output reported TGI.
Response: 5.86

Prompt: Input COc1cc2c3c(n(CCCN4CCNCC4)c(=O)c2cc1OC)-c1cc2c(cc1C3=O)OCO2 , output reported TGI.
Response: 2.92

Prompt: Input CN1CCN(C(=O)[C@@]2(C)CC[C@]3(C)CC[C@]4(C)C(=CC[C@@H]5[C@@]6(C)CCC(=O)NC(C)(C)[C@@H]6CC[C@]54C)[C@@H]3C2)CC1 , output reported TGI.
Response: 2.82

Prompt: Input O=C(c1ccccc1)C(Cl)C(Cl)c1ccccc1 (configuration not stated) , output reported TGI.
Response: 14.3

---

# System: OVCAR-8 ovarian
# procedure.details: NCI tumour cell line growth inhibition, 48 h
assay.endpoint: TGI

Use these answered entries as a reference point.
[[record]]
compound = "CCOC(=O)c1nc2ccc(OC)cc2c2c1Cc1ccccc1-2"
assay_endpoint = "TGI"
value_reported = "> 100 µM"

[[record]]
compound = "c1ccc2c(c1)SC(=C1Sc3ccccc3S1)S2"
assay_endpoint = "TGI"
value_reported = "> 100 µM"

[[record]]
compound = "Cc1ccc(Cc2cc(N3CCN(c4cccc(Cl)c4)CC3)nnc2C)cc1"
assay_endpoint = "TGI"
value_reported = "> 100 µM"


Prompt: Input COC(=O)c1cc(NC(=O)c2cc(NC(=O)c3cc([N+](=O)[O-])n(C)c3)cn2C)cn1C , output reported TGI.
Response: > 100 µM

---

# Test system: SF-268 CNS
# procedure.details: NCI tumour cell line growth inhibition, 48 h
Recorded measurements of TGI, one per entry
Give the quantity in µM, number only.

[[record]]
molecule = "CC(c1cc(Cl)ccc1O)c1cc(Cl)ccc1O"
value_reported = 16.9


Prompt: Input O=C(CN1CCN(Cc2ccccc2Cl)CC1)NC1CC(=O)c2c(Br)sc(Br)c21 (stereo not drawn) , output reported TGI.
Response: 36.7

---

Recorded measurements of TGI, one per entry
# Tested on: SN12C renal
# procedure.details: NCI tumour cell line growth inhibition, 48 h

[[record]]
molecule = "O=C(C=Nc1ccccc1C(=O)[O-])c1cccs1.O=C(C=Nc1ccccc1C(=O)[O-])c1cccs1.[Ni+2]"
assay_endpoint = "TGI"
value_reported = "> 100 µM"

[[record]]
molecule = "CCn1c(-c2nonc2N)nc2c(C#CC(C)(C)O)ncc(OC3CCNCC3)c21"
assay_endpoint = "TGI"
value_reported = "> 25 µM"


With those in mind, consider the next molecule.
Prompt: Input CC(=O)OCC12CN(C#N)C3C4COC(CC41)C1(C(=O)N(C)c4ccccc41)C32 (stereo unspecified) , output reported TGI.
Response: 73.1 µM
